Attribute: Emax
Target: KCNQ2/3 channels (Homo sapiens, UniProt O43525+O43526)
Construct: expressed in transfected cells; host or cells: CHO-K1
Assay: Fluorescence assay using a voltage sensitive dye (fluorimetry)
Assay type: cell-based
Details: CHO-K1 cells expressing KCNQ2/3 channels; relative to retigabine = 100%; read-out: Fluorimetry % efficacy (retigabine = 100%)
Quick reminder: number only, in %, skip the unit.

A selection of reference data follows.
1. COc1nc2cc(C(F)(F)F)ccc2c(C)c1C(=O)NCc1cccc(F)c1	105
2. COc1nc2cc(F)ccc2c(C)c1C(=O)NCc1cccc(F)c1	62
3. COc1nc2cc(C(F)(F)F)ccc2c(C)c1C(=O)NCc1ccc(C)cc1	96
4. CCOc1nc2cc(C(F)(F)F)ccc2c(C)c1C(=O)NCc1cccc(F)c1	132
5. CCOc1nc2cc(C(F)(F)F)ccc2c(C)c1C(=O)NCc1cccs1	175
6. COc1nc2cc(C(F)(F)F)ccc2c(C)c1C(=O)NCc1cc(F)ccc1O	173
7. CCOc1nc2cc(C#N)ccc2c(C)c1C(=O)NCc1ccc(F)cc1	112
8. Cc1c(C(=O)NCc2cccc(F)c2)c(OC(C)C)nc2cc(C(F)(F)F)ccc12	175
9. CCOc1nc2ccccc2c(C(F)(F)F)c1C(=O)NCc1cccc(F)c1	67

Proceed to the following item.
For the molecule `CCOc1nc2cc(C(F)(F)F)ccc2c(C)c1C(=O)NCc1ccc(F)cc1` , what Emax is on record?
122
